Assay: Cytotoxicity against CHO-K1 cells assessed as reduction in cell viability incubated for 24 hrs by MTT assay
Format: toxicity, cell-based
Details: Chinese hamster (Cricetulus griseus)

{"molecularString": "c1ccc2c(c1)CCc1ccccc1C2NC1CCCCC1", "operator": "=", "IC50 at 24 h / µM": 85}
{"molecularString": "c1ccc2c(c1)CCc1ccccc1C2NC1CC1", "operator": "=", "IC50 at 24 h / µM": 177}
{"molecularString": "OCCNC1c2ccccc2C=Cc2ccccc21", "operator": "=", "IC50 at 24 h / µM": 333}
{"molecularString": "C1=Cc2ccccc2C(N2CCCCC2)c2ccccc21", "operator": "=", "IC50 at 24 h / µM": 381}
{"molecularString": "CCNC1c2ccccc2CCc2ccccc21", "operator": "=", "IC50 at 24 h / µM": 364}
{"molecularString": "CC(C)CNC1c2ccccc2CCc2ccccc21", "operator": "=", "IC50 at 24 h / µM": 92.4}
{"molecularString": "COCCNC1c2ccccc2CCc2ccccc21", "operator": "=", "IC50 at 24 h / µM": 385}
{"molecularString": "C1=Cc2ccccc2C(N2CCCC2)c2ccccc21", "operator": ">", "IC50 at 24 h / µM": 900}
{"molecularString": "c1ccc2c(c1)CCc1ccccc1C2N1CCCCC1", "operator": "=", "IC50 at 24 h / µM": 73.8}
{"molecularString": "C1=Cc2ccccc2C(NC2CC2)c2ccccc21", "operator": "=", "IC50 at 24 h / µM": 260}
{"molecularString": "CN1CCN(C2c3ccccc3CCc3ccccc32)CC1", "operator": "=", "IC50 at 24 h / µM": 122}
{"molecularString": "CCN(CC)C1c2ccccc2CCc2ccccc21", "operator": "=", "IC50 at 24 h / µM": 86.4}
{"molecularString": "CC(C)CNC1c2ccccc2C=Cc2ccccc21.Cl", "operator": "=", "IC50 at 24 h / µM": 102}

====

Molecular target: Glutamate NMDA receptor; GRIN1/GRIN2B (Homo sapiens, UniProt Q05586+Q13224)
Assay: Antagonist activity at human GluN1/GluN2B receptor expressed in HEK293 cells assessed as inhibition of L-glutamate induced response at -60 mV membrane potential by patch clamp electrophysiology analysis
Type: cell-based
pIC50: −log10 of the molar value.
endpointLabel: pIC50

{"molecule": "CNC1(c2ccccc2Cl)CCCCC1=O (stereo unspecified)", "measurementTarget": "Glutamate NMDA receptor; GRIN1/GRIN2B (Homo sapiens, UniProt Q05586+Q13224)", "experimentalResult": 6.29}

====

Biological target: Glutamate NMDA receptor; GRIN1/GRIN2B (Homo sapiens, UniProt Q05586+Q13224)
Assay: Antagonist activity at human GluN1/GluN2B receptor expressed in HEK293 cells assessed as inhibition of L-glutamate induced response at -40 mV membrane potential by patch clamp electrophysiology analysis
Type: cell-based

{"compound": "Cl.OCCNC1c2ccccc2CCc2ccccc21", "measurementTarget": "Glutamate NMDA receptor; GRIN1/GRIN2B (Homo sapiens, UniProt Q05586+Q13224)", "unitOfMeasurement": "µM", "IC50": 215}
{"compound": "CC(C)CNC1c2ccccc2C=Cc2ccccc21.Cl", "measurementTarget": "Glutamate NMDA receptor; GRIN1/GRIN2B (Homo sapiens, UniProt Q05586+Q13224)", "unitOfMeasurement": "µM", "IC50": 11.7}
{"compound": "CNC1(c2ccccc2Cl)CCCCC1=O (stereo not drawn)", "measurementTarget": "Glutamate NMDA receptor; GRIN1/GRIN2B (Homo sapiens, UniProt Q05586+Q13224)", "unitOfMeasurement": "µM", "IC50": 15.2}

====

Target: Glutamate NMDA receptor; GRIN1/GRIN2B (Homo sapiens, UniProt Q05586+Q13224)
Experiment: Antagonist activity at human GluN1/GluN2B receptor expressed in HEK293 cells assessed as inhibition of L-glutamate induced response at 3 uM at -60 mV membrane potential by patch clamp electrophysiology analysis
Assay type: cell-based
Settings: filed as antagonist
inhibition: recorded values

{"molecularString": "CNC1c2ccccc2C=Cc2ccccc21", "measurementTarget": "Glutamate NMDA receptor; GRIN1/GRIN2B (Homo sapiens, UniProt Q05586+Q13224)", "inhibition (%)": 68.9}
{"molecularString": "CC(C)CNC1c2ccccc2CCc2ccccc21", "measurementTarget": "Glutamate NMDA receptor; GRIN1/GRIN2B (Homo sapiens, UniProt Q05586+Q13224)", "inhibition (%)": 91.6}
{"molecularString": "c1ccc2c(c1)CCc1ccccc1C2NC1CCCCC1", "measurementTarget": "Glutamate NMDA receptor; GRIN1/GRIN2B (Homo sapiens, UniProt Q05586+Q13224)", "inhibition (%)": 86}
{"molecularString": "CCCCNC1c2ccccc2C=Cc2ccccc21", "measurementTarget": "Glutamate NMDA receptor; GRIN1/GRIN2B (Homo sapiens, UniProt Q05586+Q13224)", "inhibition (%)": 79.2}
{"molecularString": "CC(C)NC1c2ccccc2C=Cc2ccccc21", "measurementTarget": "Glutamate NMDA receptor; GRIN1/GRIN2B (Homo sapiens, UniProt Q05586+Q13224)", "inhibition (%)": 76}
{"molecularString": "C1=Cc2ccccc2C(N2CCCCC2)c2ccccc21", "measurementTarget": "Glutamate NMDA receptor; GRIN1/GRIN2B (Homo sapiens, UniProt Q05586+Q13224)", "inhibition (%)": 58.4}
{"molecularString": "CCNC1c2ccccc2C=Cc2ccccc21", "measurementTarget": "Glutamate NMDA receptor; GRIN1/GRIN2B (Homo sapiens, UniProt Q05586+Q13224)", "inhibition (%)": 59.9}
{"molecularString": "CC(C)NC1c2ccccc2CCc2ccccc21", "measurementTarget": "Glutamate NMDA receptor; GRIN1/GRIN2B (Homo sapiens, UniProt Q05586+Q13224)", "inhibition (%)": 76.9}
{"molecularString": "c1ccc2c(c1)CCc1ccccc1C2N1CCCC1", "measurementTarget": "Glutamate NMDA receptor; GRIN1/GRIN2B (Homo sapiens, UniProt Q05586+Q13224)", "inhibition (%)": 62.1}
{"molecularString": "CCNC1c2ccccc2CCc2ccccc21", "measurementTarget": "Glutamate NMDA receptor; GRIN1/GRIN2B (Homo sapiens, UniProt Q05586+Q13224)", "inhibition (%)": 51.8}
{"molecularString": "COCCNC1c2ccccc2CCc2ccccc21", "measurementTarget": "Glutamate NMDA receptor; GRIN1/GRIN2B (Homo sapiens, UniProt Q05586+Q13224)", "inhibition (%)": 66.6}
{"molecularString": "C1=Cc2ccccc2C(NC2CCCCC2)c2ccccc21", "measurementTarget": "Glutamate NMDA receptor; GRIN1/GRIN2B (Homo sapiens, UniProt Q05586+Q13224)", "inhibition (%)": 92.4}
{"molecularString": "C1=Cc2ccccc2C(NC2CC2)c2ccccc21", "measurementTarget": "Glutamate NMDA receptor; GRIN1/GRIN2B (Homo sapiens, UniProt Q05586+Q13224)", "inhibition (%)": 57.2}
{"molecularString": "Cl.OCCNC1c2ccccc2CCc2ccccc21", "measurementTarget": "Glutamate NMDA receptor; GRIN1/GRIN2B (Homo sapiens, UniProt Q05586+Q13224)", "inhibition (%)": 49.7}

====

Catalogue of compounds with associated inhibition
Target: Glutamate NMDA receptor; GRIN1/GRIN2A (Homo sapiens, UniProt Q05586+Q12879)
Assay: Antagonist activity at human GluN1/GluN2A receptor expressed in HEK293 cells assessed as inhibition of L-glutamate induced response at 3 uM at -60 mV membrane potential by patch clamp electrophysiology analysis
Format: cell-based

{"molecularString": "COCCNC1c2ccccc2C=Cc2ccccc21", "measurementTarget": "Glutamate NMDA receptor; GRIN1/GRIN2A (Homo sapiens, UniProt Q05586+Q12879)", "inhibition (%)": 35.6}
{"molecularString": "OCCNC1c2ccccc2C=Cc2ccccc21", "measurementTarget": "Glutamate NMDA receptor; GRIN1/GRIN2A (Homo sapiens, UniProt Q05586+Q12879)", "inhibition (%)": 38.2}
{"molecularString": "CCN1CCN(C2c3ccccc3CCc3ccccc32)CC1", "measurementTarget": "Glutamate NMDA receptor; GRIN1/GRIN2A (Homo sapiens, UniProt Q05586+Q12879)", "inhibition (%)": 7.64}
{"molecularString": "C1=Cc2ccccc2C(N2CCOCC2)c2ccccc21", "measurementTarget": "Glutamate NMDA receptor; GRIN1/GRIN2A (Homo sapiens, UniProt Q05586+Q12879)", "inhibition (%)": 31.9}
{"molecularString": "C1=Cc2ccccc2C(N2CCCCC2)c2ccccc21", "measurementTarget": "Glutamate NMDA receptor; GRIN1/GRIN2A (Homo sapiens, UniProt Q05586+Q12879)", "inhibition (%)": 29.9}
{"molecularString": "CN1CCN(C2c3ccccc3CCc3ccccc32)CC1", "measurementTarget": "Glutamate NMDA receptor; GRIN1/GRIN2A (Homo sapiens, UniProt Q05586+Q12879)", "inhibition (%)": 9.7}
{"molecularString": "c1ccc2c(c1)CCc1ccccc1C2N1CCCCC1", "measurementTarget": "Glutamate NMDA receptor; GRIN1/GRIN2A (Homo sapiens, UniProt Q05586+Q12879)", "inhibition (%)": 5.4}
{"molecularString": "CCNC1c2ccccc2CCc2ccccc21", "measurementTarget": "Glutamate NMDA receptor; GRIN1/GRIN2A (Homo sapiens, UniProt Q05586+Q12879)", "inhibition (%)": 34}
{"molecularString": "c1ccc2c(c1)CCc1ccccc1C2N1CCOCC1", "measurementTarget": "Glutamate NMDA receptor; GRIN1/GRIN2A (Homo sapiens, UniProt Q05586+Q12879)", "inhibition (%)": 6.78}
{"molecularString": "CCNC1c2ccccc2C=Cc2ccccc21", "measurementTarget": "Glutamate NMDA receptor; GRIN1/GRIN2A (Homo sapiens, UniProt Q05586+Q12879)", "inhibition (%)": 39.9}
{"molecularString": "COCCNC1c2ccccc2CCc2ccccc21", "measurementTarget": "Glutamate NMDA receptor; GRIN1/GRIN2A (Homo sapiens, UniProt Q05586+Q12879)", "inhibition (%)": 34.9}
